- Tested on: SH-SY5Y cells
- procedure.text: Cell growth inhibition, SH-SY5Y
- Assay type: cell-based, human
- recorded.conditions: Homo sapiens; SH-SY5Y, sodium salt form
pIC50: −log10 of the molar value.
measured.metric: pIC50

[[record]]
compound = "CCCCCCCC/C=C\\CCCCCCC(O)C(=O)O (racemic) [2OHOA, 2-hydroxyoleic acid]"
result_number = 3.92


###

- Test system: MRC-5 cells
- procedure.text: Cell growth inhibition, MRC-5
- Format: cell-based, human
- recorded.conditions: Homo sapiens, MRC5; MRC-5 non tumor fibroblast, sodium salt form
measured.metric: IC50

[[record]]
molecule = "CCCCCCCC/C=C\\CCCCCCC(O)C(=O)O (racemic) [2OHOA, 2-hydroxyoleic acid]"
measured_metric = "IC50"
result = "> 5 mM"


The values you see were collected from patent US9359281B2.
